# experiment: folding stability dG unfold from chymotrypsin proteolysis; higher = more stable
quantity measured: folding stability dG unfold (kcal/mol)
Output spec: scalar in kcal/mol, unitless text.

Below, each entry is followed by its recorded folding stability dG unfold result.
>>> reported_measurement("SAGGMTVTLRLTDPAGEEYTVTVTKTEGKSTATVYGPGGELVETRDFSSAEEAIAYLRAQGYTVEVIESAGG [r13_315_JUSTAS]")
5.32
>>> reported_measurement("SAGFEARVLEVVDLGDRRVALFELRDPEEGRYLLAVAVYDPETGLARVELWDPTDGRLVATPVVPVLPLSAG [r5_440_TrMRF]")
2.36
>>> reported_measurement("SAGGSAGGSAAYTTPDGTNIILKDPNRPVVSLYKKDPSTNTWTPVSTLPISEVPEEILELLSAGGSAGGSAG [r3_241_JUSTAS]")
0.583
>>> reported_measurement("SAGGSAMTAEELARKLFPGAEVEVEVRLERNEDGSLSLRVEVRVRAAPPPEEEEVEEPEEVEEEEESAGGSA [r15_417_TrROS_Hall]")
1.99
>>> reported_measurement("SAGGSAGGSKKVEIKVKVKITNENGETLEVTATIVFDEKTGELYIYDEKTGKVYKISLDDIEPSAGGSAGGS [r12_772_TrROS_Hall]")
3.94

Lab note: SAGGSAGGSAMQRDPDGKPQPQVTFRIPADDMPEEQIKKHLPPEFADNFRDNMPEGDTITLSAGGSAGGSAG [r3_326_TrROS] gave folding stability dG unfold of -0.105

Lab note: SAGGSAGGSAGGFIPEDGHPDETVQLTTSLTLTTSYTLPNGETVTETHTVPVLFTYKVPSAGGSAGGSAGGS [r10_1135_TrMRF] gave folding stability dG unfold of 1.02
